# Target under test: Factor X, P00742
# Sequence (P00742 whole entry, looked up): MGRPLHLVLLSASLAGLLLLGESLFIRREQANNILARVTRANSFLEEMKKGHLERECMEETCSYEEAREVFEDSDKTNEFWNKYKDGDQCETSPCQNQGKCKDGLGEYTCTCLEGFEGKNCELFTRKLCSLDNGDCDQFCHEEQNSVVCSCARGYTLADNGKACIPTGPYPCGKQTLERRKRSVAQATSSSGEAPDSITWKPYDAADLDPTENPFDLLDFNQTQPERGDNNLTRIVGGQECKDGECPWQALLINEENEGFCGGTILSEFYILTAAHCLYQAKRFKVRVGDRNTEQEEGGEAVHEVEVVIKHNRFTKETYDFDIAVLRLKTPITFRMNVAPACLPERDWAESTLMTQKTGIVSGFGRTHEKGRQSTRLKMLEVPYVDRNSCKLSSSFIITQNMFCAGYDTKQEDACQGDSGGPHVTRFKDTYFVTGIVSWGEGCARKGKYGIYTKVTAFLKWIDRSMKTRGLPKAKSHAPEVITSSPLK
Listing of recorded kcat/KM by entry.
Property label: kcat/KM (M⁻¹ s⁻¹)

| Protein | Numeric readout |
| --- | --- |
| FIXa-Y155F/K247N/N249S/R318Y/R403E/E410N (protein) chain 1: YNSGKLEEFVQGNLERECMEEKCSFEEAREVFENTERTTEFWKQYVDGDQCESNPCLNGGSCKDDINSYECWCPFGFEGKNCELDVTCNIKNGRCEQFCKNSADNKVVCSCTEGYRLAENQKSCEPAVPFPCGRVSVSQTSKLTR chain 2: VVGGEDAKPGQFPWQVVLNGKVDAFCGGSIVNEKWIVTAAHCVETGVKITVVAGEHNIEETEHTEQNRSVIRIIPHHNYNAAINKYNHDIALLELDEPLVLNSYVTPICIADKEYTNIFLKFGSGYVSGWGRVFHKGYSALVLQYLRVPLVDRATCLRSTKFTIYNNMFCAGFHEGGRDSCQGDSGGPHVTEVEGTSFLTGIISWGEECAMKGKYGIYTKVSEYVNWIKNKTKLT | 1e+07 |
| FIXa-K293A/R338A/R403A (protein) chain 1: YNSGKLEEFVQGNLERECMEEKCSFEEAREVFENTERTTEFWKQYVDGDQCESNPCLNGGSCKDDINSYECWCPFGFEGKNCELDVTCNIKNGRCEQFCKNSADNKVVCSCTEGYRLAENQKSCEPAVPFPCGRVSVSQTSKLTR chain 2: VVGGEDAKPGQFPWQVVLNGKVDAFCGGSIVNEKWIVTAAHCVETGVKITVVAGEHNIEETEHTEQKRNVIRIIPHHNYNAAINKYNHDIALLELDEPLVLNSYVTPICIADAEYTNIFLKFGSGYVSGWGRVFHKGRSALVLQYLRVPLVDRATCLASTKFTIYNNMFCAGFHEGGRDSCQGDSGGPHVTEVEGTSFLTGIISWGEECAMKGKYGIYTKVSAYVNWIKEKTKLT | 2.5e+07 |
| FIXa-Y155F/R338E/R403E/E410N (protein) chain 1: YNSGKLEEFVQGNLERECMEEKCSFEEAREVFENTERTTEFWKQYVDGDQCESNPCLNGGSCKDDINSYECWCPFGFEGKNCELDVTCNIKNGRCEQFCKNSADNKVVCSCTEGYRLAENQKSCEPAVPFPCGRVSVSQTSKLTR chain 2: VVGGEDAKPGQFPWQVVLNGKVDAFCGGSIVNEKWIVTAAHCVETGVKITVVAGEHNIEETEHTEQKRNVIRIIPHHNYNAAINKYNHDIALLELDEPLVLNSYVTPICIADKEYTNIFLKFGSGYVSGWGRVFHKGRSALVLQYLRVPLVDRATCLRSTKFTIYNNMFCAGFHEGGEDSCQGDSGGPHVTEVEGTSFLTGIISWGEECAMKGKYGIYTKVSEYVNWIKNKTKLT | 1.8e+08 |

This collection of values is drawn from patent US20210230570.
